Target: EGFR (Homo sapiens)
Construct: purchased Carna Biosciences, Inc; host or cells: insect cell expression system
Sequence (P00533 25-1210): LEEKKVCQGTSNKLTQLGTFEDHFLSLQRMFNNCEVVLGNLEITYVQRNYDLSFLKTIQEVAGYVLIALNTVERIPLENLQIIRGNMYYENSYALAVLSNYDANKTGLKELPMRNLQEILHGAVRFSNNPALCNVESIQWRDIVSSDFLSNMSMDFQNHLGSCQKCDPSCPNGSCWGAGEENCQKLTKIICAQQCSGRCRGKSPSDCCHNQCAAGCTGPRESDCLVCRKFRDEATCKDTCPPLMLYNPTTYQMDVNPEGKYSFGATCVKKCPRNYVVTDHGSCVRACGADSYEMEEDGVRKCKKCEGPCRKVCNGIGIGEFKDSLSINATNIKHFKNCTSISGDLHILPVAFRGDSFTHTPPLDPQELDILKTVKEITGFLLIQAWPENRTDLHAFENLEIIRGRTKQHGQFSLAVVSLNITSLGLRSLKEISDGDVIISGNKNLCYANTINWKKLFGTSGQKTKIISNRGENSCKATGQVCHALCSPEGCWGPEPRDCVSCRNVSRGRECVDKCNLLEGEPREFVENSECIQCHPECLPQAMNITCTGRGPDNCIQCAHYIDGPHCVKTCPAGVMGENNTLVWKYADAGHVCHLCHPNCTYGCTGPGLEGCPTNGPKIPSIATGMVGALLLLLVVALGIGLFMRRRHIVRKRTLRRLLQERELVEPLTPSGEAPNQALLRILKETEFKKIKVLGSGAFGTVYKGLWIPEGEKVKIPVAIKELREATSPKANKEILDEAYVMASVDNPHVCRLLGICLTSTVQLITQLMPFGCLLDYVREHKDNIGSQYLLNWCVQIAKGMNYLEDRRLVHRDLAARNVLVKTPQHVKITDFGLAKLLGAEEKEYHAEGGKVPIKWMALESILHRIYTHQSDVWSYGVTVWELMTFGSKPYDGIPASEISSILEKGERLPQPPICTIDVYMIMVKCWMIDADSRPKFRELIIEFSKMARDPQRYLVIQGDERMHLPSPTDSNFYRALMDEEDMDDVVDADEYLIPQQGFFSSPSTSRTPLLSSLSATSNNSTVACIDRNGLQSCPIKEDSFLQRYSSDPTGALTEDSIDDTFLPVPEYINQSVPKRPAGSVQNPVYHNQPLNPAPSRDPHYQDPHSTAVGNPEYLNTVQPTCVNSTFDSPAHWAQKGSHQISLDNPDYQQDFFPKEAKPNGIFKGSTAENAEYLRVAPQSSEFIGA
Test: Enzyme inhibitory activity on EGFR (time resolution fluorescence, biotinylated poly-Glu-Tyr substrate)
Type: biochemical
Details: enzyme reaction at room temperature for 60 minutes
Protocol: Enzyme Inhibitory Activity of Test Compound on EGFR and HER2 EGFR and HER2 purified from an insect cell expression system, and a biotinylated substrate (synthetic peptide of glutamic acid:tyrosine=4:1) were added to a 384-well plate with ATP added thereto, and an enzyme reaction was performed at room temperature. […]
So basically every entry gets a class from its IC50, ranges being Low (below 9 nM), Mid (9 nM to below 20 nM), High (20 nM or more)

QUERY: Class (by measured IC50) for `CC#C/C(=N\OCCCNC)c1ccc2ncnc(Nc3ccc(OCc4ccccn4)c(Cl)c3)c2c1`
RESULT: Mid

QUERY: Class (by measured IC50) for CC#CC(=NOCC1CNCCN1)c1ccc2ncnc(Nc3ccc4c(cnn4Cc4cccc(F)c4)c3)c2c1 (stereo not drawn)
RESULT: Low

QUERY: Class (by measured IC50) for `CC#C/C(=N\OCCNC[C@H](C)CO)c1ccc2ncnc(Nc3ccc(OCc4ccccn4)c(Cl)c3)c2c1`
RESULT: Low

QUERY: Class (by measured IC50) for `CC#C/C(=N\OC[C@H]1CN(C)CCN1)c1ccc2ncnc(Nc3ccc(OCc4ccccn4)c(Cl)c3)c2c1`
RESULT: High

QUERY: Class (by measured IC50) for `CC#C/C(=N\OCCN(CC)CCOC)c1ccc2ncnc(Nc3ccc4c(cnn4Cc4cccc(F)c4)c3)c2c1`
RESULT: Low

Further cases:
QUERY: Class (by measured IC50) for `CC#C/C(=N\OC[C@H]1CNCC(=O)N1)c1ccc2ncnc(Nc3ccc(OCc4ccccn4)c(Cl)c3)c2c1`
RESULT: Mid

QUERY: Class (by measured IC50) for `Fc1cccc(COc2ccc(Nc3ncnc4ccc(C=NN5CCCC5)cc34)cc2Cl)c1`
RESULT: High

QUERY: Class (by measured IC50) for `COCC#C/C(=N\OCCN1CCCC1)c1ccc2ncnc(Nc3ccc(OCc4cccc(F)c4)c(Cl)c3)c2c1`
RESULT: High

QUERY: Class (by measured IC50) for `CC#C/C(=N\OCCNC)c1ccc2ncnc(Nc3ccc4c(cnn4Cc4cccc(F)c4)c3)c2c1`
RESULT: Low

QUERY: Class (by measured IC50) for `CC#C/C(=N\OCCNC1CC1)c1ccc2ncnc(Nc3ccc(OCc4ccccn4)c(Cl)c3)c2c1`
RESULT: High

====

Molecular target: HER2 (Homo sapiens, UniProt P04626)
Construct: purchased Carna Biosciences, Inc; host or cells: insect cell expression system
Sequence (P04626 23-1255): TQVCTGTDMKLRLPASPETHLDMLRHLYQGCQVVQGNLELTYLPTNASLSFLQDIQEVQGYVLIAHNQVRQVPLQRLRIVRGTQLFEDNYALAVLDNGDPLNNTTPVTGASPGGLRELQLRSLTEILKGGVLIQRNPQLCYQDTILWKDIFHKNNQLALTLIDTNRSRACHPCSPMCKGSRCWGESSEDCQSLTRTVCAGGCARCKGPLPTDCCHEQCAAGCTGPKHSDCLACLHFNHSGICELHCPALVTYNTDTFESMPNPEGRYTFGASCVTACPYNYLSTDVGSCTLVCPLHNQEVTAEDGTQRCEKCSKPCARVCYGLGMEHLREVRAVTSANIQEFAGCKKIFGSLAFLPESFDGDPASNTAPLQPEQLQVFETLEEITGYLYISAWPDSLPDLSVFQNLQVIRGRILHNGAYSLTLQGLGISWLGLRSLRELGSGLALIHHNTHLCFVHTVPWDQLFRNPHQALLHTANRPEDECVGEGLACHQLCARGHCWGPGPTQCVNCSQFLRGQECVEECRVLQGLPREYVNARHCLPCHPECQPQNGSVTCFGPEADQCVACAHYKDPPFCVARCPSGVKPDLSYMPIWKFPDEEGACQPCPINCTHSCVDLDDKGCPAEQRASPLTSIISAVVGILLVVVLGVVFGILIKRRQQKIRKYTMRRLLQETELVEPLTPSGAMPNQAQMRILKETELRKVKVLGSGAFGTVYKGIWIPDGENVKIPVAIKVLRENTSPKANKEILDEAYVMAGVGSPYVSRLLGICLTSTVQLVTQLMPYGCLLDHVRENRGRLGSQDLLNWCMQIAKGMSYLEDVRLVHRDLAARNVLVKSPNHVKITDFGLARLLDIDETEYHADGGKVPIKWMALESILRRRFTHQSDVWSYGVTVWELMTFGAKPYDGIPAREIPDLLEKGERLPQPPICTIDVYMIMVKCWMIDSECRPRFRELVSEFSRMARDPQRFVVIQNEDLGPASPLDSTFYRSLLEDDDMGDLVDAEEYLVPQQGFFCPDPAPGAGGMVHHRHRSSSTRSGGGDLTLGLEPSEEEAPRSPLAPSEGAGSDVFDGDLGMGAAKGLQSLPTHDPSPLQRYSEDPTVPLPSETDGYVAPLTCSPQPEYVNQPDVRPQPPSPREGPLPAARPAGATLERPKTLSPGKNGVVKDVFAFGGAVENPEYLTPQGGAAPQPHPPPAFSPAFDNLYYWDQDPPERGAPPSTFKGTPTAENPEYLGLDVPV
Assay: Enzyme inhibitory activity on HER2 (time resolution fluorescence, biotinylated poly-Glu-Tyr substrate)
Assay type: biochemical
Details: HER2 purified from insect cell expression system; ATP solution 290 μM; room temperature, 60 minutes
Please provide measured IC50 for the entries that follow.
Answers are plain numbers, in nM.

List IC50 for every entry below, keeping the order given.
1. CC#C/C(=N\OCCCNC)c1ccc2ncnc(Nc3ccc(OCc4cccc(F)c4)c(Cl)c3)c2c1
2. CC#CC(=NOCCNC(=NC#N)NC)c1ccc2ncnc(Nc3ccc(OCc4cccc(F)c4)c(Cl)c3)c2c1

RESULT:
1. 14
2. 236

List IC50 for every entry below, keeping the order given.
1. CC#C/C(=N\OCCNC1CC1)c1ccc2ncnc(Nc3ccc(OCc4cccc(F)c4)c(Cl)c3)c2c1
2. CC#C/C(=N\OCCN1CCCC1)c1ccc2ncnc(Nc3ccc(OCc4cccc(F)c4)c(Cl)c3)c2c1
3. CC#C/C(=N\OCCNCCNC(C)=O)c1ccc2ncnc(Nc3ccc(OCc4cccc(F)c4)c(Cl)c3)c2c1

RESULT:
1. 104
2. 45
3. 23

List IC50 for every entry below, keeping the order given.
1. CC#C/C(=N\OC[C@@H]1CCCN1)c1ccc2ncnc(Nc3ccc(OCc4cccc(F)c4)c(Cl)c3)c2c1
2. CC#C/C(=N\OC[C@H]1CCCN1CCO)c1ccc2ncnc(Nc3ccc(OCc4cccc(F)c4)c(Cl)c3)c2c1
3. CC#C/C(=N\OCCNC[C@H]1CCCO1)c1ccc2ncnc(Nc3ccc(OCc4cccc(F)c4)c(Cl)c3)c2c1
4. CS(=O)(=O)CCNCCON=C(c1ccccc1)c1ccc2ncnc(Nc3ccc(OCc4cccc(F)c4)c(Cl)c3)c2c1
5. OCC#C/C(=N\OCCN1CCCC1)c1ccc2ncnc(Nc3ccc(OCc4cccc(F)c4)c(Cl)c3)c2c1
6. CC#C/C(=N\OCCNC)c1ccc2ncnc(Nc3ccc(OCc4cccc(F)c4)c(Cl)c3)c2c1

RESULT:
1: 11; 2: 97; 3: 15; 4: 513; 5: 24; 6: 43

====

Molecular target: HER2 (Homo sapiens)
Construct: purchased Carna Biosciences, Inc; host or cells: insect cell expression system
Experiment: Enzyme inhibitory activity on HER2 (time resolution fluorescence, biotinylated poly-Glu-Tyr substrate)
Type: biochemical
Details: HER2 purified from insect cell expression system; ATP solution 290 μM; room temperature, 60 minutes
Please provide measured log10 IC50 for the entries that follow.
All values: log10 IC50 [nM].

Short answer for `CNCCO/N=C(\C#CCO)c1ccc2ncnc(Nc3ccc(OCc4cccc(F)c4)c(Cl)c3)c2c1` : log10 IC50 was 1.26

Short answer for `CC#C/C(=N\OCCN1CCNC(=O)C1)c1ccc2ncnc(Nc3ccc(OCc4cccc(F)c4)c(Cl)c3)c2c1` : log10 IC50 was 2.18

Short answer for `CC#C/C(=N\OCCNCCS(C)(=O)=O)c1ccc2ncnc(Nc3ccc(OCc4cccc(F)c4)c(Cl)c3)c2c1` : log10 IC50 was 2.18

Short answer for `CC#C/C(=N\OC[C@@H]1CNC[C@H](C)O1)c1ccc2ncnc(Nc3ccc(OCc4cccc(F)c4)c(Cl)c3)c2c1` : log10 IC50 was 1.26

Short answer for `CC#C/C(=N\OC[C@@H]1COCCN1)c1ccc2ncnc(Nc3ccc(OCc4cccc(F)c4)c(Cl)c3)c2c1` : log10 IC50 was 2.11

List log10 IC50 for every entry below, keeping the order given.
1. CC#C/C(=N\OC[C@H]1CCCN1C)c1ccc2ncnc(Nc3ccc(OCc4cccc(F)c4)c(Cl)c3)c2c1
2. CC#C/C(=N\OCCNC[C@H](C)CO)c1ccc2ncnc(Nc3ccc(OCc4cccc(F)c4)c(Cl)c3)c2c1
3. CC#C/C(=N\OC[C@H]1CNC[C@H](C)O1)c1ccc2ncnc(Nc3ccc(OCc4cccc(F)c4)c(Cl)c3)c2c1
4. CC#C/C(=N\OCCNC[C@@H]1COC(=O)N1)c1ccc2ncnc(Nc3ccc(OCc4cccc(F)c4)c(Cl)c3)c2c1
5. CC#CC(=NOCCNCC(C)CO)c1ccc2ncnc(Nc3ccc(OCc4cccc(F)c4)c(Cl)c3)c2c1 (stereo not drawn)
6. CC#C/C(=N\OC[C@@H]1CNCC(=O)N1)c1ccc2ncnc(Nc3ccc(OCc4cccc(F)c4)c(Cl)c3)c2c1

RESULT:
1: 1.92; 2: 0.96; 3: 1.72; 4: 2.44; 5: 1.34; 6: 1.89

====

Please provide measured IC50 for the entries that follow.
Molecular target: EGFR (Homo sapiens)
Construct: purchased Carna Biosciences, Inc; host or cells: insect cell expression system
Test: Enzyme inhibitory activity on EGFR (time resolution fluorescence, biotinylated poly-Glu-Tyr substrate)
Format: biochemical
Conditions: enzyme reaction at room temperature for 60 minutes
Numbers only, in nM.

Short answer for CC#C/C(=N\OCCN(C)CCO)c1ccc2ncnc(Nc3ccc(OCc4ccccn4)c(Cl)c3)c2c1 [VIII-145] : IC50 was 9.4

Short answer for CC#C/C(=N\OCCNC1CCOCC1)c1ccc2ncnc(Nc3ccc(OCc4ccccn4)c(Cl)c3)c2c1 [VIII-141] : IC50 was 10

Short answer for CC#C/C(=N\OC[C@@H]1COCCN1)c1ccc2ncnc(Nc3ccc4c(cnn4Cc4cccc(F)c4)c3)c2c1 [VIII-197] : IC50 was 9

Short answer for CC#C/C(=N\OC[C@@H]1CNCC(=O)N1)c1ccc2ncnc(Nc3ccc(OCc4ccccn4)c(Cl)c3)c2c1 [VIII-179] : IC50 was 4.6

Short answer for CC#C/C(=N\OCCN1CC[C@@H](OC(N)=O)C1)c1ccc2ncnc(Nc3ccc(OCc4ccccn4)c(Cl)c3)c2c1 [VIII-151] : IC50 was 20

Short answer for CC#C/C(=N\OC[C@@H]1CCCN1)c1ccc2ncnc(Nc3ccc(OCc4ccccn4)c(Cl)c3)c2c1 [VIII-153] : IC50 was 10

Could you now consider this next molecule?
Short answer for CC#C/C(=N\OCCN1CCNC(=O)C1)c1ccc2ncnc(Nc3ccc4c(cnn4Cc4cccc(F)c4)c3)c2c1 [VIII-196] : IC50 was 11

====

Molecular target: EGFR (Homo sapiens)
Construct: purchased Carna Biosciences, Inc; host or cells: insect cell expression system
Assay: Enzyme inhibitory activity on EGFR (time resolution fluorescence, biotinylated poly-Glu-Tyr substrate)
Type: biochemical
Settings: enzyme reaction at room temperature for 60 minutes
Experimental: Enzyme Inhibitory Activity of Test Compound on EGFR and HER2 EGFR and HER2 purified from an insect cell expression system, and a biotinylated substrate (synthetic peptide of glutamic acid:tyrosine=4:1) were added to a 384-well plate with ATP added thereto, and an enzyme reaction was performed at room temperature. […]
Field: label. Allowed values: YES (IC50 < 20 nM) or NO (IC50 >= 20 nM).

Use the examples below as a reference point.
QUERY: Answer whether the compound CC#C/C(=N\OCC1COCCN1)c1ccc2ncnc(Nc3ccc(S(=O)(=O)c4ccccc4)cc3)c2c1 (stereo not shown) [VIII-219] has IC50 strictly less than 20 nM
RESULT: NO

QUERY: Answer whether the compound CC#C/C(=N\O[C@@H]1CN[C@H](CO)C1)c1ccc2ncnc(Nc3ccc(OCc4ccccn4)c(Cl)c3)c2c1 [VIII-155] has IC50 strictly less than 20 nM
RESULT: YES

QUERY: Answer whether the compound CC#C/C(=N\OC[C@@H](COC)NC)c1ccc2ncnc(Nc3ccc(OCc4ccccn4)c(Cl)c3)c2c1 [VIII-131] has IC50 strictly less than 20 nM
RESULT: YES

QUERY: Answer whether the compound CC#C/C(=N\OCCNCCO)c1ccc2ncnc(Nc3ccc(OCc4ccccn4)c(Cl)c3)c2c1 [VIII-143] has IC50 strictly less than 20 nM
RESULT: YES

QUERY: Answer whether the compound CC#C/C(=N\OC[C@@H](COC)NC)c1ccc2ncnc(Nc3ccc(S(=O)(=O)c4ccccc4)cc3)c2c1 [VIII-205] has IC50 strictly less than 20 nM
RESULT: YES

Further cases:
QUERY: Answer whether the compound CC#C/C(=N\OC[C@@H]1COCCN1)c1ccc2ncnc(Nc3ccc(S(=O)(=O)c4ccccc4)cc3)c2c1 [VIII-207] has IC50 strictly less than 20 nM
RESULT: NO

QUERY: Answer whether the compound CC#C/C(=N\OCCNC)c1ccc2ncnc(Nc3ccc(COc4cccc(F)c4)c(Cl)c3)c2c1 [VIII-211] has IC50 strictly less than 20 nM
RESULT: NO
